Reference source: PubChem BioAssay (NCI)

// TGI lookup, one value per entry
# Test system: OVCAR-5 ovarian
# test-summary: NCI tumour cell line growth inhibition, 48 h

Reference set, count: 4
compound	TGI
Cc1cc(C)c(S(=O)(=O)N(CCCN)OCCCN)c(C)c1	> 100 µM
O=C(/C=C/c1ccc(Cl)cc1)c1ccc(Cl)s1	> 100 µM
Clc1ccc(-c2nnc(-c3nsc4ccccc34)o2)cc1	> 100 µM
O=C1Nc2ccccc2C1S(=O)(=O)c1ccccc1 (stereo not drawn)	> 100 µM

stdin: What does the record list as TGI for CC(C)=NNc1ncnc2nc[nH]c12 ?
stdout: > 48.4 µM

stdin: What does the record list as TGI for O=C(c1ccccc1)c1ccc2nc3n(c2c1)C(c1c(Cl)cccc1Cl)SC3 (stereo not drawn) ?
stdout: > 100 µM

* * *

# System: KM12 colon
# test-summary: NCI tumour cell line growth inhibition, 48 h
Decision: TGI >= 10 µM yields YES, all other cases yield NO.

compound	label
CCOc1cc2c(cc1O)CC[C@@H]1[C@@H]2CC[C@]2(C)[C@@H](O)CC[C@@H]12	YES

stdin: Threshold query (TGI >= 10 µM) on O=C1c2ccoc2C(=O)c2oc(=O)ccc21
stdout: YES

stdin: Threshold query (TGI >= 10 µM) on CCN(CCCl)c1cc(CN(C)C)cc(NC(=O)c2cc(C(=O)Nc3cc(CN(C)C)cc(N(CC)CCCl)c3)n(C)n2)c1
stdout: NO

stdin: Threshold query (TGI >= 10 µM) on C=C(C)[C@@H]1CC[C@]2(C(=O)n3ccnc3)CC[C@]3(C)[C@H](CC[C@@H]4[C@@]5(C)CCCNC(C)(C)[C@@H]5CC[C@]43C)[C@@H]12
stdout: NO

stdin: Threshold query (TGI >= 10 µM) on CN(CCCNC(=O)c1c2ccc3ccccc3c2nn1C)CCCNC(=O)c1c2ccc3ccccc3c2nn1C
stdout: YES

stdin: Threshold query (TGI >= 10 µM) on COc1cccc(/C=C2/S/C(=N/Nc3nc(C)c(C(C)=O)s3)NC2=O)c1O
stdout: YES

stdin: Threshold query (TGI >= 10 µM) on CCOC(=O)C(C)(Cc1ccc(O)cn1)NC(=O)c1ccccc1 (stereo not given)
stdout: YES

stdin: Threshold query (TGI >= 10 µM) on Cc1ccc2oc3c(ccc(=O)n3C)c(=O)c2c1
stdout: YES

stdin: Threshold query (TGI >= 10 µM) on CCN(CC)Cc1ccc(Nc2c3ccccc3nc3ccccc23)cc1
stdout: YES

stdin: Threshold query (TGI >= 10 µM) on Brc1ccc(-c2nc(-c3ccc(Br)cc3)n(-c3ccccc3)n2)cc1
stdout: YES

stdin: Threshold query (TGI >= 10 µM) on Cc1cc(OC(=O)c2c(C)cc(OC(=O)c3c(C)cc(O)cc3O)cc2O)cc(O)c1C(=O)O
stdout: YES

stdin: Threshold query (TGI >= 10 µM) on O=C(CN(/C=C/C(=O)C(F)(F)F)c1ccccc1)c1ccc(F)cc1
stdout: YES

stdin: Threshold query (TGI >= 10 µM) on CCCCCC(/C=C/[C@@H]1[C@@H](C(O)CCCCCC(=O)OC)C(=O)C[C@H]1O[Si](C)(C)C(C)(C)C)OCOCCOC (stereo not given in full)
stdout: YES

stdin: Threshold query (TGI >= 10 µM) on O=C(Nc1nc2c(s1)CCc1c-2c(Br)n(Cc2ccccc2)c1Br)c1ccccc1
stdout: YES

stdin: Threshold query (TGI >= 10 µM) on CC(=O)O[C@H]1C[C@@H](OC(C)=O)[C@@](C)(O)[C@@H]2[C@@H](OC(C)=O)[C@@]3(O)[C@H](/C=C(/CCl)[C@H]4O[C@H]4[C@@H](OC(C)=O)[C@@]12C)OC(=O)[C@@H]3C
stdout: YES

stdin: Threshold query (TGI >= 10 µM) on COc1ccc2c(C(=O)c3c(C)n(CCN4CCOCC4)c4ccccc34)cccc2c1
stdout: YES

stdin: Threshold query (TGI >= 10 µM) on O=C(NN1C(=O)C(Cl)C1c1c(O)ccc2ccccc12)c1ccccc1O (stereo not given)
stdout: YES

stdin: Threshold query (TGI >= 10 µM) on O=c1[nH]nc(Cc2ccccc2)n1C1CC1
stdout: YES

stdin: Threshold query (TGI >= 10 µM) on Nc1nc2c(c(=O)[nH]1)NC(CCNc1ccc(C(=O)O)cc1)CN2 (stereo not given)
stdout: YES

stdin: Threshold query (TGI >= 10 µM) on O=C1c2ccccc2-n2c1nc1ccc(Cl)cc1c2=O
stdout: YES

stdin: Threshold query (TGI >= 10 µM) on C=C1C(=O)O[C@@H]2[C@H]1C[C@H](I)[C@@]1(C)CC[C@H](O1)[C@](C)(I)CCCC(C)[C@@H]2O (stereo not given in full)
stdout: YES

stdin: Threshold query (TGI >= 10 µM) on CCN(CC)Cc1cc(Nc2cc(C(F)(F)F)c(C#N)c3nc4ccccc4n23)ccc1O
stdout: NO
